Tested on: tobacco cutworm (Spodoptera litura)
protocol.text: Test Example 1: mortality of third-instar larvae of tobacco cutworm on cabbage, three days
Format: in vivo
assay.conditions: 72 h, 200 ppm active ingredient, 3 days
assay.endpoint: mortality at 200 ppm (%)
Answers are plain numbers, in %.

Could you share which mortality at 200 ppm value was measured for CCCCN(CC(=O)OCC)SN(C)C(=O)ON=C(C)SC [Example 3] ?
100

# map each compound to its mortality at 200 ppm
1. CCOC(=O)CCN(Cc1ccccc1)SN(C)C(=O)ON=C(C)SC [Example 8]
2. CCOC(=O)CCN(SN(C)C(=O)ON=C(C)SC)C(C)C [Example 1]
3. CCOC(=O)CN(SN(C)C(=O)ON=C(C)SC)C(=O)OCC [Example 12]
4. CCOC(=O)CCN(SN(C)C(=O)ON=C(C)SC)C1CCCCC1 [Example 7]
5. CCCCOC(=O)CCN(SN(C)C(=O)ON=C(C)SC)C(C)C [Example 15]

[100, 90, 100, 100, 95]

* * *

Tested on: tobacco cutworm (Spodoptera litura)
protocol.text: Test Example 1: mortality of third-instar larvae of tobacco cutworm on cabbage, three days
Assay type: in vivo
assay.conditions: 72 h, 200 ppm active ingredient, 3 days
For each entry below, report its mortality at 200 ppm value.
One number for each entry, in %.

Could you share which mortality at 200 ppm value was measured for CCCCC(CC)COC(=O)CCN(SN(C)C(=O)ON=C(C)SC)C(C)C (centres unmarked) ?
70

# map each compound to its mortality at 200 ppm
1. CCOC(=O)CCN(CCC(=O)OCC)SN(C)C(=O)ON=C(C)SC
2. CCCCCCN(CCC(=O)OCC)SN(C)C(=O)ON=C(C)SC
3. CCCN(CCC(=O)OCC)SN(C)C(=O)ON=C(C)SC
4. CCCCCCCCN(CCC(=O)OCC)SN(C)C(=O)ON=C(C)SC

100
80
100
75

* * *

Tested on: green rice leafhopper (Nephotettix cincticeps)
protocol.text: Test Example 2: mortality of female adults of green rice leafhopper on paddy rice, three days
Format: in vivo
assay.conditions: 72 h, 400 ppm active ingredient, 3 days
Description: An emulsion of specified concentration was prepared from a 50% wettable powder of the compound to be tested and applied to the leaves of paddy rice (one-month-old seedlings) planted in a pot to fully wet the leaves. After air-drying the emulsion, the pot was covered with a net cage, into which 10 female adults of green rice leafhopper (Nephotettix cincticeps) were released. The compound of each specified concentration was tested on two pots.
assay.endpoint: mortality at 400 ppm (%)
One number for each entry, in %.

Would you please look over these solved cases?
Could you share which mortality at 400 ppm value was measured for CCOC(=O)CN(SN(C)C(=O)ON=C(C)SC)C(=O)OCC ?
100

Could you share which mortality at 400 ppm value was measured for CCOC(=O)CN(SN(C)C(=O)ON=C(C)SC)S(=O)(=O)c1ccc(C)cc1 ?
100

Could you share which mortality at 400 ppm value was measured for CCCCCCN(CCC(=O)OCC)SN(C)C(=O)ON=C(C)SC ?
100

Could you share which mortality at 400 ppm value was measured for CCOC(=O)CCN(SN(C)C(=O)ON=C(C)SC)c1cccc(C)c1 ?
100

# map each compound to its mortality at 400 ppm
1. CCCCC(CC)COC(=O)CCN(SN(C)C(=O)ON=C(C)SC)C(C)C (stereo not shown)
2. CCCCN(CC(=O)OCC)SN(C)C(=O)ON=C(C)SC
3. CCOC(=O)CN(CC(=O)OCC)SN(C)C(=O)ON=C(C)SC
4. CCCCN(CCC(=O)OC)SN(C)C(=O)ON=C(C)SC

[90, 100, 80, 100]

# map each compound to its mortality at 400 ppm
1. CCCN(CCC(=O)OCC)SN(C)C(=O)ON=C(C)SC
2. CCOC(=O)CCN(Cc1ccc(Cl)cc1)SN(C)C(=O)ON=C(C)SC

[100, 100]
